# assay-notes: Acute toxicity in po dosed C57BL/6J mouse assessed as lethal dose
# Assay type: organism-based
# condition-label: in vivo
metric: LD50 (mg/kg)
Answer format: numeric, mg/kg implied, no suffix.

Task: I am curious: what LD50 value has been reported for "CC1(C)[C@@H](O)C(O)=C[C@]2(C)[C@H]3C(=O)C=C4[C@@H]5C[C@@](C)(C(=O)O)CC[C@]5(C)CC[C@@]4(C)[C@]3(C)CC[C@@H]12" ?
Output: 940

---

# target-system: Pancreatic triacylglycerol lipase (Sus scrofa)
# Sequence (P00591 whole entry): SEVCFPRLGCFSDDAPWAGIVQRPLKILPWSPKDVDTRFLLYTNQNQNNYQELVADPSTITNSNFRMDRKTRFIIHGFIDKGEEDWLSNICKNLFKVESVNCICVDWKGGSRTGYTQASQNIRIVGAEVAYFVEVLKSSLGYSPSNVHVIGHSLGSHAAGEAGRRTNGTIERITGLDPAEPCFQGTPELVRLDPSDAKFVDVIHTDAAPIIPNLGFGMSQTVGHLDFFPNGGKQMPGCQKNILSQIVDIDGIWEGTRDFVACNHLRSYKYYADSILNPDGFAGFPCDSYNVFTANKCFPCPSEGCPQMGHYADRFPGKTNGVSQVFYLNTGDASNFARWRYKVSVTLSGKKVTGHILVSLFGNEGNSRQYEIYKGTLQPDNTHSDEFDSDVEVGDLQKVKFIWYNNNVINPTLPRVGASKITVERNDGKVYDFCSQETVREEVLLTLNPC
metric: pIC50
For clarity, pIC50 is expressed as the negative log10 of concentration in mol/L.

Task: I am curious: what pIC50 value has been reported for "CCCCC/C=C\C/C=C\C[C@@H](C[C@@H]1OC(=O)[C@H]1CCCCCC)OC(=O)[C@H](CC(C)C)NC=O" ?
Output: 6.85

Entry source: ChEMBL document CHEMBL5126556
